# targetOrTestSystem: HiBiT-BRM (Homo sapiens, UniProt P51531)
# Construct: expressed in transfected cells
# Sequence (P51531 whole entry): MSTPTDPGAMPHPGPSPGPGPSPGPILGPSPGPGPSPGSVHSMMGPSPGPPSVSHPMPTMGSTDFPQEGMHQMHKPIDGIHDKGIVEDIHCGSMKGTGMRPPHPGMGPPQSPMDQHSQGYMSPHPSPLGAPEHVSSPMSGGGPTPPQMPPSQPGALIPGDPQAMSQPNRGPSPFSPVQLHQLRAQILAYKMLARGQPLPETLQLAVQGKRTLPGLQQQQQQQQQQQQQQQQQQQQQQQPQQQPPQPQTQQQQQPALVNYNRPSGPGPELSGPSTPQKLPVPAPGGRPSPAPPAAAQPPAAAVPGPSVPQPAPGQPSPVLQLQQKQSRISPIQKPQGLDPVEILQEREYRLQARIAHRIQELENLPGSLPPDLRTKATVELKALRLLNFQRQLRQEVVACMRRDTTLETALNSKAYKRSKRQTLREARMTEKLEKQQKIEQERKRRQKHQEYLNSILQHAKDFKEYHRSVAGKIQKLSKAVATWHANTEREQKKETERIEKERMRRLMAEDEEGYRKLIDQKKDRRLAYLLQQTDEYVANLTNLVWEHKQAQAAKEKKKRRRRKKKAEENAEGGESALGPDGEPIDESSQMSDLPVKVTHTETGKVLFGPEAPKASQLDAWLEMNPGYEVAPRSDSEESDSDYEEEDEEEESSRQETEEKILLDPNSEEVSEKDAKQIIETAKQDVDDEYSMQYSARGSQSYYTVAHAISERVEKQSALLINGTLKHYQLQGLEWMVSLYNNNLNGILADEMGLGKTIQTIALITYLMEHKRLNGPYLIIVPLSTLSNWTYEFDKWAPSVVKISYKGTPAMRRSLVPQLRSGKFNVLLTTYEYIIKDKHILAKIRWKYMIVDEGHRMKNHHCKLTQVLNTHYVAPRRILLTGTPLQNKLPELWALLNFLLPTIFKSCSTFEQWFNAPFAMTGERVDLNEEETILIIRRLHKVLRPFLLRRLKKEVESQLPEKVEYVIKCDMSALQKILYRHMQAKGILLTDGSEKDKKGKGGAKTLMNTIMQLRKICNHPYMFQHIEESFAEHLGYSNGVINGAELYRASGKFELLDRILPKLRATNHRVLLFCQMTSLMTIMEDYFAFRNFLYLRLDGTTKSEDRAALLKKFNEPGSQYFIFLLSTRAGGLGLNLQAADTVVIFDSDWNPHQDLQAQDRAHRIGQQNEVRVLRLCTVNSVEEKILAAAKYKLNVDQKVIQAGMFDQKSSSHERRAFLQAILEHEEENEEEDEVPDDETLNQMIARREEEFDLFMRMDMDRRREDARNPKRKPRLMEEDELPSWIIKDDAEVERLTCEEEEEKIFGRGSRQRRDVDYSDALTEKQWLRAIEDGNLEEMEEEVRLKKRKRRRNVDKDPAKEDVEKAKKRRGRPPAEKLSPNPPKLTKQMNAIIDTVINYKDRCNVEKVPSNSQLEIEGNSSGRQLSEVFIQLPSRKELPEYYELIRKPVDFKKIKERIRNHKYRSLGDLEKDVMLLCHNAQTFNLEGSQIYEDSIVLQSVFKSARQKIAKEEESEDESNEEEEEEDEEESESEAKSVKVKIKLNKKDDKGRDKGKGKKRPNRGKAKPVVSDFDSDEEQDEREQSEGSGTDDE
# runDescription: HiBiT-BRM cell-based degradation assay (Nano-Glo HiBiT Lytic Detection)
# runParameters: HeLa cells expressing HiBiT-BRM, 24 h; read-out: BRM HiBit Degradation IC50
Quick reference: DC50 of the listed items.
observedProperty: DC50

{"compound": "Cc1ncsc1-c1ccc(CNC(=O)[C@@H]2C[C@@H](O)CN2C(=O)[C@@H](NC(=O)CCN2CCN(CC(=O)NCc3ccc(CCOc4cc(-c5ccccc5O)nnc4N)cc3)CC2)C(C)(C)C)cc1 [Compound 179]", "targetOrTestSystem": "HiBiT-BRM (Homo sapiens, UniProt P51531)", "observedValue": "> 1000 nM"}
{"compound": "Cc1ncsc1-c1ccc([C@H](C)NC(=O)[C@@H]2C[C@@H](O)CN2C(=O)[C@@H](NC(=O)CN2CCC3(CCN(CCC(=O)NCc4ccc(CCOc5cc(-c6ccccc6O)nnc5N)cc4)CC3)CC2)C(C)(C)C)cc1 [Compound 267]", "targetOrTestSystem": "HiBiT-BRM (Homo sapiens, UniProt P51531)", "observedValue": "> 1000 nM"}
{"compound": "Cc1ncsc1-c1ccc(CNC(=O)[C@@H]2C[C@@H](O)CN2C(=O)[C@@H](NC(=O)CCN2CC(C3CCN(C(=O)c4ccc(CCOc5cc(-c6ccccc6O)nnc5N)cc4)CC3)C2)C(C)(C)C)cc1 [Compound 199]", "targetOrTestSystem": "HiBiT-BRM (Homo sapiens, UniProt P51531)", "observedValue": "> 1000 nM"}
{"compound": "Cc1ncsc1-c1ccc([C@H](C)NC(=O)[C@@H]2C[C@@H](O)CN2C(=O)[C@@H](c2cc(OCCN3CCC4(CC3)CCN(C(=O)c3ccc(CCOc5cc(-c6ccccc6O)nnc5N)cc3)CC4)no2)C(C)C)cc1 [Compound 209]", "targetOrTestSystem": "HiBiT-BRM (Homo sapiens, UniProt P51531)", "observedValue": "> 10 nM"}
{"compound": "Cc1ncsc1-c1ccc([C@H](C)NC(=O)[C@@H]2C[C@@H](O)CN2C(=O)[C@@H](c2cc(OCCN3CC4(C3)CN(C(=O)c3ccc(CCOc5cc(-c6ccccc6O)nnc5N)cc3)C4)no2)C(C)C)cc1 [Compound 208]", "targetOrTestSystem": "HiBiT-BRM (Homo sapiens, UniProt P51531)", "observedValue": "> 10 nM"}
{"compound": "Cc1ncsc1-c1ccc(CNC(=O)[C@@H]2C[C@@H](O)CN2C(=O)[C@@H](NC(=O)CCCCCCCCCNCc2ccc(CCOc3cc(-c4ccccc4O)nnc3N)cc2)C(C)(C)C)cc1 [Compound 26]", "targetOrTestSystem": "HiBiT-BRM (Homo sapiens, UniProt P51531)", "observedValue": "> 100 nM"}
{"compound": "Nc1nnc(-c2ccccc2O)cc1OCCc1ccc(C(=O)NCCCCCCCCNc2cccc3c2C(=O)N(C2CCC(=O)NC2=O)C3=O)cc1 (stereo not shown) [Compound 44]", "targetOrTestSystem": "HiBiT-BRM (Homo sapiens, UniProt P51531)", "observedValue": "> 100 nM"}
{"compound": "Nc1nnc(-c2ccccc2O)cc1OCCc1ccc(CNC(=O)CCCOc2cccc3c2C(=O)N(C2CCC(=O)NC2=O)C3=O)cc1 (stereo not shown) [Compound 65]", "targetOrTestSystem": "HiBiT-BRM (Homo sapiens, UniProt P51531)", "observedValue": "> 1000 nM"}
{"compound": "Cc1ncsc1-c1ccc([C@H](C)NC(=O)[C@@H]2C[C@@H](O)CN2C(=O)[C@@H](c2cc(OCCN3CC4(C3)CN(CC(=O)NCc3ccc(CCOc5cc(-c6ccccc6O)nnc5N)cc3)C4)no2)C(C)C)cc1 [Compound 191]", "targetOrTestSystem": "HiBiT-BRM (Homo sapiens, UniProt P51531)", "observedValue": "> 100 nM"}
{"compound": "Cc1ncsc1-c1ccc(CNC(=O)[C@@H]2C[C@@H](O)CN2C(=O)[C@@H](NC(=O)CN2CCC(OC3CCN(CCC(=O)NCc4ccc(CCOc5cc(-c6ccccc6O)nnc5N)cc4)CC3)CC2)C(C)(C)C)cc1 [Compound 244]", "targetOrTestSystem": "HiBiT-BRM (Homo sapiens, UniProt P51531)", "observedValue": "> 1000 nM"}
{"compound": "Nc1nnc(-c2ccccc2O)cc1N1CCN(CCNC(=O)CCCCCCCOc2cccc3c2C(=O)N(C2CCC(=O)NC2=O)C3=O)CC1 (stereo not shown) [Compound 90]", "targetOrTestSystem": "HiBiT-BRM (Homo sapiens, UniProt P51531)", "observedValue": "> 1000 nM"}
{"compound": "Nc1nnc(-c2ccccc2O)cc1OCCc1ccc(C(=O)NCCN2CCN(c3cccc4c3C(=O)N(C3CCC(=O)NC3=O)C4=O)CC2)cc1 (stereo not shown) [Compound 149]", "targetOrTestSystem": "HiBiT-BRM (Homo sapiens, UniProt P51531)", "observedValue": "> 100 nM"}
{"compound": "Cc1ncsc1-c1ccc(CNC(=O)[C@@H]2C[C@@H](O)CN2C(=O)[C@@H](NC(=O)CCCCCCCCCCCCCCCC(=O)NCc2ccc(CCOc3cc(-c4ccccc4O)nnc3N)cc2)C(C)C)cc1 [Compound 173]", "targetOrTestSystem": "HiBiT-BRM (Homo sapiens, UniProt P51531)", "observedValue": "> 100 nM"}
{"compound": "Cc1ncsc1-c1ccc(CNC(=O)[C@@H]2C[C@@H](O)CN2C(=O)[C@@H](NC(=O)CCCCCCCCCNC(=O)CN2CCN(c3cc(-c4ccccc4O)nnc3N)CC2)C(C)(C)C)cc1 [Compound 102]", "targetOrTestSystem": "HiBiT-BRM (Homo sapiens, UniProt P51531)", "observedValue": "> 100 nM"}
{"compound": "Nc1nnc(-c2ccccc2O)cc1OCCc1ccc(CNCCCCCNc2cccc3c2C(=O)N(C2CCC(=O)NC2=O)C3=O)cc1 (stereo not shown) [Compound 112]", "targetOrTestSystem": "HiBiT-BRM (Homo sapiens, UniProt P51531)", "observedValue": "> 10 nM"}
{"compound": "Cc1ncsc1-c1ccc([C@H](C)NC(=O)[C@@H]2C[C@@H](O)CN2C(=O)[C@@H](c2cc(OCCN3CCC(C4CN(C(=O)c5ccc(CCOc6cc(-c7ccccc7O)nnc6N)cc5)C4)CC3)no2)C(C)C)cc1 [Compound 207]", "targetOrTestSystem": "HiBiT-BRM (Homo sapiens, UniProt P51531)", "observedValue": "> 10 nM"}
{"compound": "Nc1nnc(-c2ccccc2O)cc1OCCc1ccc(CN2CC(N3CCN(c4cccc5c4C(=O)N(C4CCC(=O)NC4=O)C5=O)CC3)C2)cc1 (stereo not shown) [Compound 143]", "targetOrTestSystem": "HiBiT-BRM (Homo sapiens, UniProt P51531)", "observedValue": "> 1000 nM"}
{"compound": "Cc1ncsc1-c1ccc([C@H](C)NC(=O)[C@@H]2C[C@@H](O)CN2C(=O)[C@@H](c2cc(OCCN3CC4(C3)CN(CCC(=O)NCc3ccc(CCOc5cc(-c6ccccc6O)nnc5N)cc3)C4)no2)C(C)C)cc1 [Compound 192]", "targetOrTestSystem": "HiBiT-BRM (Homo sapiens, UniProt P51531)", "observedValue": "> 100 nM"}
{"compound": "Cc1ncsc1-c1ccc([C@H](C)NC(=O)[C@@H]2C[C@@H](O)CN2C(=O)[C@@H](NC(=O)CCN2C[C@H]3CN(CCC(=O)NCc4ccc(CCOc5cc(-c6ccccc6O)nnc5N)cc4)C[C@H]3C2)C(C)(C)C)cc1 [Compound 259]", "targetOrTestSystem": "HiBiT-BRM (Homo sapiens, UniProt P51531)", "observedValue": "> 1000 nM"}

----------
# targetOrTestSystem: HiBit-BRG1 (Homo sapiens)
# Construct: expressed in transfected cells
# Sequence (P51532 whole entry): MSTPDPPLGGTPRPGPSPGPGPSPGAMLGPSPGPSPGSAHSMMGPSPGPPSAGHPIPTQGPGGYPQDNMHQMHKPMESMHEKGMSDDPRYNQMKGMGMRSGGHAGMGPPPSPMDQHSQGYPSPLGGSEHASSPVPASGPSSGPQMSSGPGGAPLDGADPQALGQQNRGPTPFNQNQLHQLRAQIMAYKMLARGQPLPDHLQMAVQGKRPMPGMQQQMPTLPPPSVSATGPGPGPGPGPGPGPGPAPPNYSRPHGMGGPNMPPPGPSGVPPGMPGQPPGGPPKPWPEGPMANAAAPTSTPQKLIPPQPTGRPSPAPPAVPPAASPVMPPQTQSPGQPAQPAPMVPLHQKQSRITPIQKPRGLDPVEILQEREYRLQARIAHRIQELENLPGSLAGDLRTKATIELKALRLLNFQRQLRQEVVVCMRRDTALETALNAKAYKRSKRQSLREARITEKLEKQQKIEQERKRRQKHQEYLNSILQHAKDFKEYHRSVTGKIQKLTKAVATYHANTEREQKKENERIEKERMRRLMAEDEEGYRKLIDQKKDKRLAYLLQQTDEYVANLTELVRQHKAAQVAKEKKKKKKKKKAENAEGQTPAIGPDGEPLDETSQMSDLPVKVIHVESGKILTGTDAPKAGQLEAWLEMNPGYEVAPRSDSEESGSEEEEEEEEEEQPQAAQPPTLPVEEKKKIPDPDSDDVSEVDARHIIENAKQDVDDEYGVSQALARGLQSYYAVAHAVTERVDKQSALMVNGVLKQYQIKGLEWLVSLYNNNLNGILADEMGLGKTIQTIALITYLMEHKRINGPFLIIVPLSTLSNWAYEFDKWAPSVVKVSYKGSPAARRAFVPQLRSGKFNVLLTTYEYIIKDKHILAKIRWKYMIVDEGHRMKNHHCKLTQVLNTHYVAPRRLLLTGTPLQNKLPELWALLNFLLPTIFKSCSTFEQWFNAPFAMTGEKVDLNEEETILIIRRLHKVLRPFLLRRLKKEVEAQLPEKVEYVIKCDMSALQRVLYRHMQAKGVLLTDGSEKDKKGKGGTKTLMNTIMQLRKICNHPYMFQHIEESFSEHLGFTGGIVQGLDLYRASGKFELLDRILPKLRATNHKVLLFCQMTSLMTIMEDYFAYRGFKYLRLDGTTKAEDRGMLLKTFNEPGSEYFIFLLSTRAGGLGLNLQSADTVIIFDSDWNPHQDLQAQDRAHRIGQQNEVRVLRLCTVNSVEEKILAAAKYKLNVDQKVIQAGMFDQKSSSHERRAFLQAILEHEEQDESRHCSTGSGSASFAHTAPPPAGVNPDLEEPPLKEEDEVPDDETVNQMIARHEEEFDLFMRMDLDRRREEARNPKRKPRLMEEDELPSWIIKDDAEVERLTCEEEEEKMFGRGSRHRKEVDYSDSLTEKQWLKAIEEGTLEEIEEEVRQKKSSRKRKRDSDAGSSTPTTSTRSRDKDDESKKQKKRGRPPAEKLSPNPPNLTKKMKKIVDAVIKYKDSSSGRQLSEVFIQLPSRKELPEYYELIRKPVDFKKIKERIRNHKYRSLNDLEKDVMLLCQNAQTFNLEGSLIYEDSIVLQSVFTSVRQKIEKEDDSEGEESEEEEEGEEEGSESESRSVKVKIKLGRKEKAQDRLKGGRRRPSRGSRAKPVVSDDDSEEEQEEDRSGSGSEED
# runDescription: HiBit-BRG1 cell-based degradation assay (Nano-Glo HiBiT Lytic Detection)
# runParameters: HeLa cells expressing HiBit-BRG1 and LgBit, 24 h; read-out: BRG1 HiBit Degradation IC50
observedProperty: DC50

{"molecule": "Nc1nnc(-c2ccccc2O)cc1OCCc1ccc(C(=O)NCCCCCCCC(=O)NCc2ccc(S(=O)(=O)Nc3cccc4c(Cl)c[nH]c34)cc2)cc1", "observedValue": "> 1000 nM"}
{"molecule": "Nc1nnc(-c2ccccc2O)cc1OCCc1ccc(C(=O)NCCCCCCNc2ccc3c(c2)C(=O)N(C2CCC(=O)NC2=O)C3=O)cc1 (stereo not drawn)", "observedValue": "> 1000 nM"}
{"molecule": "Nc1nnc(-c2ccccc2O)cc1OCCc1ccc(C(=O)N2CCC(C3CCN(C(=O)COc4cccc5c4C(=O)N(C4CCC(=O)NC4=O)C5=O)CC3)CC2)cc1 (stereo not drawn)", "observedValue": "> 1000 nM"}

----------
# targetOrTestSystem: HiBiT-BRM (Homo sapiens)
# Construct: expressed in transfected cells
# runDescription: HiBiT-BRM cell-based degradation assay (Nano-Glo HiBiT Lytic Detection)
# runParameters: HeLa cells expressing HiBiT-BRM, 24 h; read-out: BRM HiBit Degradation IC50
observedProperty: DC50

{"compound": "Nc1nnc(-c2ccccc2O)cc1OCCc1ccc(C(=O)NCCCCCCCCC(=O)NCc2ccc(S(=O)(=O)Nc3cccc4c(Cl)c[nH]c34)cc2)cc1", "observedValue": "> 1000 nM"}
{"compound": "Cc1ncsc1-c1ccc([C@H](C)NC(=O)[C@@H]2C[C@@H](O)CN2C(=O)[C@@H](c2cc(OCCNCCCCCCC(=O)NCc3ccc(CCOc4cc(-c5ccccc5O)nnc4N)cc3)no2)C(C)C)cc1", "observedValue": "> 1000 nM"}
{"compound": "CN(CCNC(=O)COc1cccc2c1C(=O)N(C1CCC(=O)NC1=O)C2=O)CCNC(=O)c1ccc(CCOc2cc(-c3ccccc3O)nnc2N)cc1 (stereo not drawn)", "observedValue": "> 1000 nM"}
{"compound": "Cc1ncsc1-c1ccc(CNC(=O)[C@@H]2C[C@@H](O)CN2C(=O)[C@@H](NC(=O)CN2CCC(O[C@H]3C[C@H](Oc4cc(N5[C@@H]6CC[C@H]5CN(c5cc(-c7ccccc7O)nnc5N)C6)ccn4)C3)CC2)C(C)(C)C)cc1", "observedValue": "< 10 nM"}
{"compound": "Cc1ncsc1-c1ccc([C@H](C)NC(=O)[C@@H]2C[C@@H](O)CN2C(=O)[C@@H](NC(=O)CCCCCCCCCCCCCCC(=O)NCc2ccc(CCOc3cc(-c4ccccc4O)nnc3N)cc2)C(C)(C)C)cc1", "observedValue": "> 10 nM"}
{"compound": "Nc1nnc(-c2ccccc2O)cc1OCCc1ccc(CNC(=O)CCCCOc2ccc3c(c2)C(=O)N(C2CCC(=O)NC2=O)C3=O)cc1 (stereo not drawn)", "observedValue": "> 1000 nM"}
{"compound": "Nc1nnc(-c2ccccc2O)cc1OCCc1ccc(C(=O)NCCCCCCCCNC(=O)COc2cccc3c2C(=O)N(C2CCC(=O)NC2=O)C3=O)cc1 (stereo not drawn)", "observedValue": "> 1000 nM"}
{"compound": "Cc1ncsc1-c1ccc([C@H](C)NC(=O)[C@@H]2C[C@@H](O)CN2C(=O)[C@@H](NC(=O)CCN2CCC(OC3CCN(CCC(=O)NCc4ccc(CCOc5cc(-c6ccccc6O)nnc5N)cc4)CC3)CC2)C(C)(C)C)cc1", "observedValue": "> 1000 nM"}
{"compound": "Nc1nnc(-c2ccccc2O)cc1N1CCN(C(=O)C2CC2CNC(=O)COc2cccc3c2C(=O)N(C2CCC(=O)NC2=O)C3=O)CC1 (stereo not drawn)", "observedValue": "> 1000 nM"}
{"compound": "Nc1nnc(-c2ccccc2O)cc1OCCc1ccc(CNC(=O)CCCCNc2ccc3c(c2)C(=O)N(C2CCC(=O)NC2=O)C3)cc1 (stereo not drawn)", "observedValue": "> 1000 nM"}
{"compound": "Cc1ncsc1-c1ccc([C@H](C)NC(=O)[C@@H]2C[C@@H](O)CN2C(=O)[C@@H](NC(=O)CCCCCCCCCCCCCCCC(=O)N(C)Cc2ccc(CCOc3cc(-c4ccccc4O)nnc3N)cc2)C(C)(C)C)cc1", "observedValue": "> 10 nM"}
{"compound": "Cc1ncsc1-c1ccc([C@H](C)NC(=O)[C@@H]2C[C@@H](O)CN2C(=O)[C@@H](NC(=O)CCCCCCCCCCCCCCC(=O)N(C)Cc2ccc(CCOc3cc(-c4ccccc4O)nnc3N)cc2)C(C)(C)C)cc1", "observedValue": "> 10 nM"}
{"compound": "CN(CCc1ccc(CNC(=O)CCCCOc2cccc3c2C(=O)N(C2CCC(=O)NC2=O)C3=O)cc1)c1cc(-c2ccccc2O)nnc1N (stereo not drawn)", "observedValue": "> 1000 nM"}
{"compound": "Cc1ncsc1-c1ccc([C@H](C)NC(=O)[C@@H]2C[C@@H](O)CN2C(=O)[C@@H](c2cc(OCCNCCCCCCCCCCC(=O)NCc3ccc(CCOc4cc(-c5ccccc5O)nnc4N)cc3)no2)C(C)C)cc1", "observedValue": "> 10 nM"}
{"compound": "Nc1nnc(-c2ccccc2O)cc1OCCc1ccc(CNC(=O)CCCCCCCOc2cccc3c2C(=O)N(C2CCC(=O)NC2=O)C3=O)cc1 (stereo not drawn)", "observedValue": "> 1000 nM"}
{"compound": "Nc1nnc(-c2ccccc2O)cc1N1CCN(CC(=O)NC2CCN(CCOc3ccc4c(c3)C(=O)N(C3CCC(=O)NC3=O)C4=O)CC2)CC1 (stereo not drawn)", "observedValue": "> 1000 nM"}
{"compound": "Nc1nnc(-c2ccccc2O)cc1N1CCN(CC(=O)NCCCCCCCCNc2ccc3c(c2)C(=O)N(C2CCC(=O)NC2=O)C3=O)CC1 (stereo not drawn)", "observedValue": "> 100 nM"}
{"compound": "Cc1ncsc1-c1ccc([C@H](C)NC(=O)[C@@H]2C[C@@H](O)CN2C(=O)[C@@H](NC(=O)CCCCCCCCCCN2CCN(Cc3ccc(CCOc4cc(-c5ccccc5O)nnc4N)cc3)CC2)C(C)(C)C)cc1", "observedValue": "> 10 nM"}
{"compound": "Cc1ncsc1-c1ccc(CNC(=O)[C@@H]2C[C@@H](O)CN2C(=O)[C@@H](NC(=O)CCN2CCC(O)(C(=O)NCc3ccc(CCOc4cc(-c5ccccc5O)nnc4N)cc3)CC2)C(C)(C)C)cc1", "observedValue": "> 1000 nM"}
{"compound": "Cc1ncsc1-c1ccc(CNC(=O)[C@@H]2C[C@@H](O)CN2C(=O)[C@@H](NC(=O)CCN2CC(C3CN(C(=O)c4ccc(CCOc5cc(-c6ccccc6O)nnc5N)cc4)C3)C2)C(C)(C)C)cc1", "observedValue": "> 1000 nM"}
{"compound": "Nc1nnc(-c2ccccc2O)cc1OCCc1ccc(CNC(=O)CCCNc2cccc3nnn(C4CCC(=O)NC4=O)c(=O)c23)cc1 (stereo not drawn)", "observedValue": "> 1000 nM"}

Just for reference, patent US20230150974A1 is where these values come from.
